Entries and their Potency
- Assayed System: Dual specificity protein kinase CLK4 (Homo sapiens)
- Assay Summary: Reaction Biology data for inhibitors of CLK4: Probe SAR
- Measurement Conditions: Reaction Biology CLK4 kinase assay, 10 uM ATP; series mostly up to 10 µM
Results filed as inconclusive are left out. Activity calls are given as the source filed them. Calls come from the whole dose curve; as a rule, active = well fitted inhibition curve with a large enough effect; inconclusive = small, poorly fitted or top-dose-only effect; inactive = flat fitted curve, though single readings scatter.

Please review the entries below; each comes with its answer.
Cc1nc(CNc2ncnc3ccc(-c4ccc5c(c4)OCO5)cc23)cs1: 25 nM (active)
Clc1ccc(CNc2nccc(-c3ccc4cn[nH]c4c3)n2)cc1Cl: 123 nM (active)
Brc1cc(Br)cc(CNc2nccc(-c3ccc4c(c3)OCO4)n2)c1: 9.4 nM (active)

For "c1cc(-c2ccc3c(c2)OCO3)nc(Nc2ccc3c(c2)OCO3)n1" , what is its reported Potency? 74.8 nM (active)

Name the recorded Potency for "FC(F)(F)c1cccc(Nc2nccc(-c3ccc4c(c3)OCO4)n2)c1" . 41.7 nM (active)

###

- Assayed System: Dual specificity protein kinase CLK4 (Homo sapiens) (UniProt Q9HAZ1)
- Sequence (Q9HAZ1 whole entry, looked up): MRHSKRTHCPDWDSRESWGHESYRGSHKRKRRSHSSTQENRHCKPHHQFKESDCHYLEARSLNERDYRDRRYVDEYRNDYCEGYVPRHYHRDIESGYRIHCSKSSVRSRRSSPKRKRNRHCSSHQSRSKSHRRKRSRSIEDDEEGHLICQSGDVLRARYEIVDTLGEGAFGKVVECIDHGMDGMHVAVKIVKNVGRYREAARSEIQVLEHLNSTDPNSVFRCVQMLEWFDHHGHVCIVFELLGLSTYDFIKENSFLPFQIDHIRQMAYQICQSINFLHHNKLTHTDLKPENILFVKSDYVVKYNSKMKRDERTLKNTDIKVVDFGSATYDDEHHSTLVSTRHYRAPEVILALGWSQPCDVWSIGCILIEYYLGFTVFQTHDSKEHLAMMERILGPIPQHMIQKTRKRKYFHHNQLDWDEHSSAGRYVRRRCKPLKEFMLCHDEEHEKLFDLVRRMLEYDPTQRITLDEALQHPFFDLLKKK
- Assay Summary: Reaction Biology data for inhibitors of CLK4: Probe SAR
- Measurement Conditions: Reaction Biology CLK4 kinase assay, 10 uM ATP; series mostly up to 10 µM
Records with an inconclusive call do not appear. Active and inactive are the calls of the source. Calls follow the shape of the dose curve; as a rule, active = well fitted inhibition curve with a large enough effect; inconclusive = small, poorly fitted or top-dose-only effect; inactive = flat fitted curve, though single readings scatter.
Could you please pick one outcome from this set? YES = active, NO = inactive

A selection of reference data follows.
Cc1nc(CN(C)c2ncnc3ccc(-c4ccc5c(c4)OCO5)cc23)cs1: YES
COc1cccc(-c2ccnc(NCc3ccc(Cl)cc3)n2)c1: YES
Clc1ccc(CNc2nccc(-c3ccc4c(c3)OCCO4)n2)cc1Cl: YES
FC(F)(F)c1cc(Br)cc(Nc2nccc(-c3ccc4c(c3)OCO4)n2)c1: YES
COc1cccc(-c2ccnc(NCc3ccc(Cl)c(Cl)c3)n2)c1: YES

What call does the record list for "Cc1c(-c2ccnc(NCc3ccc(Cl)cc3)n2)sc(=O)n1C" ? YES

Test call, this molecule: "COc1ccc(-c2ccnc(NCc3ccc(Cl)c(Cl)c3)n2)cc1OC" NO

Just curious, what result did "c1cncc(CNc2ccnc(-c3ccc4cn[nH]c4c3)n2)c1" get here? YES

Please let me know the test result on file for "Clc1ccc(CNc2nccc(-c3ccc4[nH]ncc4c3)n2)cc1Cl" . YES

Could you kindly confirm the outcome this assay logged for "c1cncc(CNc2nccc(-c3ccc4[nH]ncc4c3)n2)c1" ? YES

# outcome recorded in this test, key = "Cc1nc(CN(C)c2ncnc3ccc(-c4ccc5[nH]ncc5c4)cc23)cs1" YES
